For each entry below, report its protein stability index value.
B1: MFF (parent)
chain: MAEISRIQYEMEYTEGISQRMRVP

Variants of: B1
Test: protein stability index of a GFP-peptide fusion (GPS, HEK-293T) (PSI 1-6); higher = more stable;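 note: lentivirally expressed fusions sorted by FACS into six bins by GFP to DsRed ratio, PSI derived from sequencing read proportions per bin multiplied by bin number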
Details: c terminus: a fixed tail appended

> print(dat)
                  sequence.content  recorded.result
1   QAEISRIQYEMEYTEGISQRMRVP [M1Q]             3.56
2  MAEISRIQYEMEYTEGISQKMRVP [R20K]             2.72
3  MAEISRIQYEMEYTEKISQRMRVP [G16K]             2.71

Batch lookup, protein stability index per entry.
1. MAEISRIQYEMEYTEGISQRMRCP [V23C]
2. MAEISRIKYEMEYTEGISQRMRVP [Q8K]

Completion:
1. 2.87
2. 2.13
